The reported numbers originate from ChEMBL document CHEMBL1151074.

# Experimental System: Prothrombin (Homo sapiens, UniProt P00734)
Measure: IC50 (µM)
Give the quantity in µM, number only.

IC50 measured on CC(C)(C)CC(=O)N[C@H](Cc1ccccc1)C(=O)N1CCC[C@H]1C(=O)N[C@@H](CCCN=C(N)N)C(=O)c1nc2ccccc2[nH]1 = 0.0921

* * *

# Experimental System: Plasminogen (Rattus norvegicus)
# Sequence (Q01177 97-581 limits assumed): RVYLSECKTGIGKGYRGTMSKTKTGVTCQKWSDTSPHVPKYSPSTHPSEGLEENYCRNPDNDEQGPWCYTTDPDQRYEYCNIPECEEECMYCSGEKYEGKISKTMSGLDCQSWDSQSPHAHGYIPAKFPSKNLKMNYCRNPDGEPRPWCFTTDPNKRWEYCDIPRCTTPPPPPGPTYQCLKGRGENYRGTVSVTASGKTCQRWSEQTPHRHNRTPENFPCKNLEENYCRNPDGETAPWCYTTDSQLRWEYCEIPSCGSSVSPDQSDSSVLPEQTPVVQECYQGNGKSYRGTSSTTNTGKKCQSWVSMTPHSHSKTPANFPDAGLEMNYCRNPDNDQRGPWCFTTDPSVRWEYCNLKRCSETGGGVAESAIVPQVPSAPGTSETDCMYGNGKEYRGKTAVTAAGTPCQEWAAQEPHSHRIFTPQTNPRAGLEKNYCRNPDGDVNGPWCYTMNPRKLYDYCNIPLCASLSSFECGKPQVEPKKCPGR
# Sequence (Q01177 582-812 limits assumed): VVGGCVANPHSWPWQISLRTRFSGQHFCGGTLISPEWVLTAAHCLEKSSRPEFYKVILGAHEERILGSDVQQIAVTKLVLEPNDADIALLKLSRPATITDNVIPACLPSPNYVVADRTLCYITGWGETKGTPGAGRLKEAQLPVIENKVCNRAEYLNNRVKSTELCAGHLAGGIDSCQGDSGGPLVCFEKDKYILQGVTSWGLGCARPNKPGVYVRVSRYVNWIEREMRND
# Experimental Details: Inhibitory concentration against plasmin.
pIC50: −log10 of the molar value.
Measure: pIC50

>>> df
                                   compound              experimental_system  measured_value
0  CC(C)(C)CC(=O)N[C@H](Cc1ccccc1)C(=O)N1CCC[C@H]1C(=O)N[C@@H](CCCNC(=N)N)C(=O)c1nc2ccccc2o1  Plasminogen (Rattus norvegicus)            5.88
1  CC(=O)N[C@H](Cc1ccccc1)C(=O)N[C@@H](Cc1cccc2ccccc12)C(=O)N[C@H]1CCCN(C(=N)N)C1O (stereo partly drawn)  Plasminogen (Rattus norvegicus)          > 7.60

pIC50 measured on CC(C)(C)CC(=O)N[C@H](Cc1ccccc1)C(=O)N1CCC[C@H]1C(=O)N[C@@H](CCCN=C(N)N)C(=O)c1nc2ccccc2[nH]1 = < 5.60
